Here's a batch of compounds along with measured IC50 for HGFR (His6-HGFR cytoplasmic domain) (Homo sapiens).
experimental-endpoint: IC50 (nM)

Some solved cases for reference:
- compound: "CN1CCC(N(C)C(=O)Nc2cc(Oc3ccc(NC(=S)NC(=O)Cc4ccc(F)cc4)c(F)c3)ccn2)CC1 [Example 289]"
  target-or-test-system: "HGFR (His6-HGFR cytoplasmic domain) (Homo sapiens)"
  observed-value: 67
- compound: "O=C(CC(=O)Nc1ccc(Oc2ccnc(NC(=O)C3CC3)c2)cc1F)Nc1ccc(F)cc1 [Example 77]"
  target-or-test-system: "HGFR (His6-HGFR cytoplasmic domain) (Homo sapiens)"
  observed-value: 13
- compound: "CN(C)CCCN1CCC(N(C)C(=O)Nc2cc(Oc3ccc(NC(=S)NC(=O)Cc4ccc(F)cc4)cc3F)ncn2)CC1 [Example 221]"
  target-or-test-system: "HGFR (His6-HGFR cytoplasmic domain) (Homo sapiens)"
  observed-value: 170
- compound: "CN(C)C(=O)Nc1cc(Oc2ccc(NC(=O)NC(=O)Cc3ccccc3)cc2F)ccn1 [Example 44]"
  target-or-test-system: "HGFR (His6-HGFR cytoplasmic domain) (Homo sapiens)"
  observed-value: 45
- compound: "O=C(Cc1ccccc1)NC(=O)Nc1ccc(Oc2ccnc(NC(=O)N3CCCC3)c2)cc1Cl [Example 47]"
  target-or-test-system: "HGFR (His6-HGFR cytoplasmic domain) (Homo sapiens)"
  observed-value: 100
- compound: "CN1CCC(N2CCN(C(=O)Nc3cc(Oc4ccc(NC(=O)NC(=O)Cc5ccc(F)cc5)cc4)ccn3)CC2)CC1 [Example 346]"
  target-or-test-system: "HGFR (His6-HGFR cytoplasmic domain) (Homo sapiens)"
  observed-value: 100
- compound: "O=C(CC(=O)Nc1ccc(Oc2ccnc(NC(=O)N3CCC(N4CCCC4)CC3)c2)cc1F)Nc1ccc(F)cc1 [Example 82]"
  target-or-test-system: "HGFR (His6-HGFR cytoplasmic domain) (Homo sapiens)"
  observed-value: 66
- compound: "CN1CCC(N2CCN(C(=O)Nc3cc(Oc4ccc(NC(=O)NC(=O)Cc5ccc(F)cc5)cc4F)ccn3)CC2)CC1 [Example 345]"
  target-or-test-system: "HGFR (His6-HGFR cytoplasmic domain) (Homo sapiens)"
  observed-value: 120
- compound: "CN(C)[C@H]1CCN(C(=O)Nc2cc(Oc3ccc(NC(=S)NC(=O)Cc4ccc(F)cc4)cc3F)ncn2)C1 [Example 254]"
  target-or-test-system: "HGFR (His6-HGFR cytoplasmic domain) (Homo sapiens)"
  observed-value: 83
- compound: "CN(C)CCN1CCC(N(C)C(=O)Nc2cc(Oc3ccc(NC(=S)NC(=O)Cc4ccc(F)cc4)cc3F)ncn2)CC1 [Example 184]"
  target-or-test-system: "HGFR (His6-HGFR cytoplasmic domain) (Homo sapiens)"
  observed-value: 130

A. CCN(CC)CCCN(C)C(=O)Nc1cc(Oc2ccc(NC(=O)CC(=O)Nc3ccc(F)cc3)c(F)c2)ccn1 [Example 83]
B. CC(=O)N1CCC(N(C)C(=O)Nc2cc(Oc3ccc(NC(=S)NC(=O)Cc4ccc(F)cc4)cc3F)ccn2)CC1 [Example 301]
Problem: Field: entry with larger IC50 (options A / B ). Give the chosen item's label as your response.
Solution: A
(A: 82 nM, B: 28 nM)
